# measurement notes: Terminal half life in Beagle dog at 5 mg/kg, po via gavage by HPLC/MS analysis
# Assay type: ADME, organism-based, Canis lupus familiaris
# assay setup: in vivo, read-out: beta t1/2 (converted)
observable: half-life (h)
Answer in h, number only, no unit symbol.

The value of half-life measured for the compound Cc1c(Oc2cnc(C(=O)N3CC(C)(O)C3)cn2)ccc2c1B(O)OC2 turned out to be 9.5

====

# measurement notes: Volume of distribution at steady state in Sprague-Dawley rat at 5 mg/kg, iv by HPLC/MS analysis
# Format: ADME, organism-based
# assay setup: in vivo, read-out: Vdss
observable: Vd
Remember to put the unit after the number in your answer.

The value of Vd measured for the molecule Cc1c(Oc2cnc(C(=O)N3CC(C)(O)C3)cn2)ccc2c1B(O)OC2 turned out to be 0.831 L/kg

====

# measurement notes: Oral bioavailability in CD1 mouse at 5 mg/kg by HPLC/MS analysis
# Format: ADME, organism-based
# assay setup: in vivo
# cutoff 90% applies to bioavailability; >= gives MET, < gives NOT MET

Assess whether reported bioavailability for Cc1c(Oc2cnc(C(=O)NC(C)CO)cn2)ccc2c1B(O)OC2 (stereo not given) sits at 90% or higher. NOT MET

Assess whether reported bioavailability for Cc1c(Oc2cnc(C(=O)NCCO)cn2)ccc2c1B(O)OC2 sits at 90% or higher. MET

Further cases:
Assess whether reported bioavailability for Cc1c(Oc2cnc(C(=O)N3CC(C)(O)C3)cn2)ccc2c1B(O)OC2 sits at 90% or higher. MET

Assess whether reported bioavailability for Cc1c(Oc2cnc(C(=O)N[C@@H](CO)CC(F)(F)F)cn2)ccc2c1B(O)OC2 sits at 90% or higher. NOT MET

Assess whether reported bioavailability for CCC[C@H](CO)NC(=O)c1cnc(Oc2ccc3c(c2C)B(O)OC3)cn1 sits at 90% or higher. MET

====

# measurement notes: Terminal half life in CD1 mouse at 5 mg/kg, iv by HPLC/MS analysis
# Type: ADME, organism-based
# assay setup: in vivo, read-out: beta t1/2 (converted)
observable: half-life (h)
Answer in h, number only, no unit symbol.

The value of half-life measured for the molecule Cc1c(Oc2cnc(C(=O)N[C@@H](CO)CC(F)(F)F)cn2)ccc2c1B(O)OC2 turned out to be 3

The value of half-life measured for the molecule CCC[C@H](CO)NC(=O)c1cnc(Oc2ccc3c(c2C)B(O)OC3)cn1 turned out to be 4.2

The value of half-life measured for the molecule Cc1c(Oc2cnc(C(=O)NC(C)CO)cn2)ccc2c1B(O)OC2 (stereo not given) turned out to be 3.1

The value of half-life measured for the molecule Cc1c(Oc2cnc(C(=O)N3CC(C)(O)C3)cn2)ccc2c1B(O)OC2 turned out to be 7.1

Further cases:
The value of half-life measured for the molecule Cc1c(Oc2cnc(C(=O)NCCO)cn2)ccc2c1B(O)OC2 turned out to be 3

====

# measurement notes: Tmax in CD1 mouse plasma at 5 mg/kg, po via gavage by HPLC/MS analysis
# Format: ADME, organism-based
// values below are reported Tmax
Answer in h, number only, no unit symbol.

The value of Tmax measured for the compound Cc1c(Oc2cnc(C(=O)N[C@@H](CO)CC(F)(F)F)cn2)ccc2c1B(O)OC2 turned out to be 1

Further cases:
The value of Tmax measured for the compound CCC[C@H](CO)NC(=O)c1cnc(Oc2ccc3c(c2C)B(O)OC3)cn1 turned out to be 0.5

The value of Tmax measured for the compound Cc1c(Oc2cnc(C(=O)NC(C)CO)cn2)ccc2c1B(O)OC2 (stereo not given) turned out to be 1

The value of Tmax measured for the compound Cc1c(Oc2cnc(C(=O)N3CC(C)(O)C3)cn2)ccc2c1B(O)OC2 turned out to be 0.5

The value of Tmax measured for the compound Cc1c(Oc2cnc(C(=O)NCCO)cn2)ccc2c1B(O)OC2 turned out to be 1

====

# measurement notes: Volume of distribution at steady state in CD1 mouse at 5 mg/kg, iv by HPLC/MS analysis
# Format: ADME, organism-based
# assay setup: in vivo, read-out: Vdss
observable: Vd (L/kg)
Answer in L/kg, number only, no unit symbol.

Example compounds with recorded Vd:
The value of Vd measured for the compound Cc1c(Oc2cnc(C(=O)NCCO)cn2)ccc2c1B(O)OC2 turned out to be 0.636

The value of Vd measured for the compound Cc1c(Oc2cnc(C(=O)N3CC(C)(O)C3)cn2)ccc2c1B(O)OC2 turned out to be 0.888

The value of Vd measured for the compound Cc1c(Oc2cnc(C(=O)N[C@@H](CO)CC(F)(F)F)cn2)ccc2c1B(O)OC2 turned out to be 0.741

Further cases:
The value of Vd measured for the compound CCC[C@H](CO)NC(=O)c1cnc(Oc2ccc3c(c2C)B(O)OC3)cn1 turned out to be 0.874

The value of Vd measured for the compound Cc1c(Oc2cnc(C(=O)NC(C)CO)cn2)ccc2c1B(O)OC2 (stereo not given) turned out to be 0.603

====

// values below are reported T99.9%
# Test system: Plasmodium falciparum
# measurement notes: Antimalarial activity against intraerythrocytic stage of Plasmodium falciparum assessed as time required to clear 99.9% of initial parasite population at 10 times IC50 preincubated for 24 hrs followed by [3H]-hypoxanthine addition measured after 24 hrs by scintillation counting method
# Format: functional
Answer in h, number only, no unit symbol.

Example compounds with recorded T99.9%:
The value of T99.9% measured for the compound O=C1C(O)=C([C@H]2CC[C@H](c3ccc(Cl)cc3)CC2)C(=O)c2ccccc21 turned out to be 81

The value of T99.9% measured for the compound CCN(CC)CCCC(C)Nc1ccnc2cc(Cl)ccc12 (stereo not given) turned out to be 34

The value of T99.9% measured for the compound Cc1c(Oc2cnc(C(=O)N3CC(C)(O)C3)cn2)ccc2c1B(O)OC2 turned out to be 36

Next up:
The value of T99.9% measured for the compound CCc1nc(N)nc(N)c1-c1ccc(Cl)cc1 turned out to be 61

====

# Test system: Plasmodium berghei
# measurement notes: Antimalarial activity against Plasmodium berghei infected in Swiss Webster mouse assessed as mouse survival rate at 33 mg/kg administered once daily via oral gavage for 4 consecutive days beginning 1 hr after infection measured on day 12 post infection relative to control
# Assay type: functional
// values below are reported survival at 33 mg/kg
Answer in %, number only, no unit symbol.

Example compounds with recorded survival at 33 mg/kg:
The value of survival at 33 mg/kg measured for the compound Cc1c(Oc2cnc(C(=O)N3CC(O)(C(F)(F)F)C3)cn2)ccc2c1B(O)OC2 turned out to be 50

The value of survival at 33 mg/kg measured for the compound Cc1c(Oc2cnc(C(=O)N3CC(O)(C4CC4)C3)cn2)ccc2c1B(O)OC2 turned out to be 40

The value of survival at 33 mg/kg measured for the compound Cc1c(Oc2cnc(C(=O)N3CC(O)(C(C)C)C3)cn2)ccc2c1B(O)OC2 turned out to be 100

Further cases:
The value of survival at 33 mg/kg measured for the compound CCC1(O)CN(C(=O)c2cnc(Oc3ccc4c(c3C)B(O)OC4)cn2)C1 turned out to be 20

The value of survival at 33 mg/kg measured for the compound Cc1c(Oc2cnc(C(=O)N3CC(C)(O)C3)cn2)ccc2c1B(O)OC2 turned out to be 100

The value of survival at 33 mg/kg measured for the compound CCCC1(O)CN(C(=O)c2cnc(Oc3ccc4c(c3C)B(O)OC4)cn2)C1 turned out to be 100

====

# Test system: Plasmodium berghei
# measurement notes: Antimalarial activity against Plasmodium berghei infected in Swiss Webster mouse assessed as mouse survival rate at 100 mg/kg administered once daily via oral gavage for 4 consecutive days beginning 1 hr after infection measured on day 13 post infection relative to control
# Format: functional
observable: survival at 100 mg/kg (%)
Answer in %, number only, no unit symbol.

Let me check: CCC[C@H](CO)NC(=O)c1cnc(Oc2ccc3c(c2C)B(O)OC3)cn1 , system Plasmodium berghei, measured survival at 100 mg/kg is 20

Let me check: Cc1c(Oc2cnc(C(=O)N[C@@H](CO)C(C)C)cn2)ccc2c1B(O)OC2 , system Plasmodium berghei, measured survival at 100 mg/kg is 40

Let me check: CCCC1(O)CN(C(=O)c2cnc(Oc3ccc4c(c3C)B(O)OC4)cn2)C1 , system Plasmodium berghei, measured survival at 100 mg/kg is 100

Let me check: Cc1c(Oc2cnc(C(=O)N3CC(C)(O)C3)cn2)ccc2c1B(O)OC2 , system Plasmodium berghei, measured survival at 100 mg/kg is 100

Let me check: CCC1(O)CN(C(=O)c2cnc(Oc3ccc4c(c3C)B(O)OC4)cn2)C1 , system Plasmodium berghei, measured survival at 100 mg/kg is 100

Further cases:
Let me check: Cc1c(Oc2cnc(C(=O)N3CC(O)(C(F)(F)F)C3)cn2)ccc2c1B(O)OC2 , system Plasmodium berghei, measured survival at 100 mg/kg is 100

Let me check: Cc1c(Oc2cnc(C(=O)N3CC(O)(C4CC4)C3)cn2)ccc2c1B(O)OC2 , system Plasmodium berghei, measured survival at 100 mg/kg is 100

Let me check: Cc1c(Oc2cnc(C(=O)N3CC(O)(C(C)C)C3)cn2)ccc2c1B(O)OC2 , system Plasmodium berghei, measured survival at 100 mg/kg is 100
